I'd appreciate it if you could supply IC50 values for the items below.
target: IDH1 R132H (Homo sapiens (Human), UniProt O75874, R132H); assay: Assays for IDH1 R132H Inhibitors (NADPH/aKG, resazurin detection); assay type: biochemical; conditions: IDH1 R132H enzyme, Table 2; read-out: IDHR132H Activity
Sequence (O75874 whole entry R132H): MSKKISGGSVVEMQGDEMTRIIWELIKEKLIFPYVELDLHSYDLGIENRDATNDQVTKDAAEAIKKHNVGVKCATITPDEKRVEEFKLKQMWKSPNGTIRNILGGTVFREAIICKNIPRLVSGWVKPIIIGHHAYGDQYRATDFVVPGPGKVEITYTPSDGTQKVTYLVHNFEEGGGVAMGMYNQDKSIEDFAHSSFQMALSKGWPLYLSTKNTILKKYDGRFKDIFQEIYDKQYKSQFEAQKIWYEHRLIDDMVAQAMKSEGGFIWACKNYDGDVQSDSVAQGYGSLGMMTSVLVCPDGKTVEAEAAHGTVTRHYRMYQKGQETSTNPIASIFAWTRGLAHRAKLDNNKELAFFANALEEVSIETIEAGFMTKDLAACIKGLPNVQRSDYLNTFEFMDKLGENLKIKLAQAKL

Qu. Tell me the measured IC50 of CSCCC(=O)N1CCN(c2nc(C3CC3)c3c(c2C#N)CC(C)(C)OC3)CC1(C)C [Compound 320] , please.
Ans. 1000 to 10000 nM

Qu. Tell me the measured IC50 of Cc1cc(C(=O)N2CCN(c3nc(C4CC4)c4c(c3C#N)CC(C)(C)OC4)C[C@H]2C)c(C)o1 [Compound 244] , please.
Ans. 1000 to 10000 nM

Qu. Tell me the measured IC50 of CC(C)[C@@H]1CN(c2nc(C3CC3)c3c(c2C#N)CC(C)(C)OC3)CCN1C(=O)C1CCOC1 (stereo partly drawn) [Compound 266] , please.
Ans. 500 to 1000 nM

Qu. Tell me the measured IC50 of CC(C)[C@@H]1CN(c2nc(C3CC3)c3c(c2C#N)CC(C)(C)OC3)CCN1C(=O)NCCc1ccccc1 [Compound 286] , please.
Ans. 1000 to 10000 nM

Qu. Tell me the measured IC50 of CCCOC(=O)N1CCN(c2nc(C(C)C)c3c(c2C#N)CC(C)(C)OC3)CC1C(=O)OCC (stereo not drawn) [Compound 364] , please.
Ans. 1000 to 10000 nM

Qu. Tell me the measured IC50 of CC(C)[C@@H]1CN(c2nc(C3CC3)c3c(c2C#N)CC(C)(C)OC3)CCN1C(=O)Nc1ccc(F)cc1 [Compound 283] , please.
Ans. 1000 to 10000 nM

Qu. Tell me the measured IC50 of C#CCNC(=O)N1CCN(c2nc(C3CCCCC3)c3c(c2C#N)CCOC3)C[C@H]1C [Compound 361] , please.
Ans. 1000 to 10000 nM

Qu. Tell me the measured IC50 of COc1ccccc1CC(=O)N1CCN(c2nc(C3CC3)c3c(c2C#N)CC(C)(C)OC3)C[C@H]1C(C)C [Compound 208] , please.
Ans. 500 to 1000 nM

Qu. Tell me the measured IC50 of CC(C)[C@@H]1CN(c2nc(C3CC3)c3c(c2C#N)CC(C)(C)OC3)CCN1C(=O)Nc1ccc(C#N)cc1 [Compound 303] , please.
Ans. 1000 to 10000 nM

Qu. Tell me the measured IC50 of CC(C)c1nc(N2CC(C)N(C(=O)c3ccco3)CC2C)c(C#N)c2c1COCC2 (stereo not drawn) [Compound 114] , please.
Ans. 1000 to 10000 nM

Qu. Tell me the measured IC50 of COc1ccc(NC(=O)N2CCN(c3nc(C4CCCCC4)c4c(c3C#N)CCOC4)C[C@H]2C)cc1 [Compound 299] , please.
Ans. 1000 to 10000 nM

Qu. Tell me the measured IC50 of CC(C)c1nc(N2CCN(C(=O)c3ccoc3)CC2c2ccccc2)c(C#N)c2c1COC(C)(C)C2 (stereo not drawn) [Compound 178] , please.
Ans. 1000 to 10000 nM

Qu. Tell me the measured IC50 of Cc1nccn1CC(=O)N1CCN(c2nc(C3CC3)c3c(c2C#N)CC(C)(C)OC3)C[C@H]1C(C)C [Compound 380] , please.
Ans. 1000 to 10000 nM

Qu. Tell me the measured IC50 of COC(=O)CC(=O)N1CCN(c2nc(C3CC3)c3c(c2C#N)CC(C)(C)OC3)C[C@H]1C(C)C [Compound 409] , please.
Ans. < 500 nM

Qu. Tell me the measured IC50 of CC(C)c1nc(N2CCN(C(=O)Cc3cccc(F)c3)[C@H](C(C)C)C2)c(C#N)c2c1COC(C)(C)C2 [Compound 234] , please.
Ans. 1000 to 10000 nM
